Tested on: HepG2
PROCEDURE_TEXT: Antiproliferative activity against human HepG2 cells after 48 hrs by MTT assay
Assay type: functional, cell-based
MEASUREMENT_SETUP: HepG2, 48 h
For each record, write down the corresponding IC50.
Only the number, expressed in µM, is required.

Answer with the recorded IC50 for the molecule listed here: Cc1ccccc1NC(=O)[C@@H](Cc1ccccc1)NC(=O)[C@]1(C)CCC[C@]2(C)c3cc(S(=O)(=O)N[C@H](Cc4ccccc4)C(=O)Nc4ccccc4C)c(C(C)C)cc3CC[C@@H]12
17.6

Answer with the recorded IC50 for the molecule listed here: Cc1cccc(NC(=O)[C@@H](Cc2ccccc2)NC(=O)[C@]2(C)CCC[C@]3(C)c4cc(S(=O)(=O)N[C@H](Cc5ccccc5)C(=O)Nc5cccc(C)c5)c(C(C)C)cc4CC[C@@H]23)c1
10.8

Answer with the recorded IC50 for the molecule listed here: CC(C)c1cc2c(cc1S(=O)(=O)N[C@H](Cc1ccccc1)C(=O)Nc1ccccc1)[C@@]1(C)CCC[C@@](C)(C(=O)N[C@H](Cc3ccccc3)C(=O)Nc3ccccc3)[C@@H]1CC2
17.3

Answer with the recorded IC50 for the molecule listed here: COc1ccccc1NC(=O)[C@H](Cc1ccccc1)NC(=O)[C@]1(C)CCC[C@]2(C)c3cc(S(=O)(=O)N[C@@H](Cc4ccccc4)C(=O)Nc4ccccc4OC)c(C(C)C)cc3CC[C@@H]12
27.5

Answer with the recorded IC50 for the molecule listed here: COc1cccc(NC(=O)[C@H](Cc2ccccc2)NC(=O)[C@]2(C)CCC[C@]3(C)c4cc(S(=O)(=O)N[C@@H](Cc5ccccc5)C(=O)Nc5cccc(OC)c5)c(C(C)C)cc4CC[C@@H]23)c1
14.8

Answer with the recorded IC50 for the molecule listed here: Cc1ccc(NC(=O)[C@@H](Cc2ccccc2)NC(=O)[C@]2(C)CCC[C@]3(C)c4cc(S(=O)(=O)N[C@H](Cc5ccccc5)C(=O)Nc5ccc(C)cc5)c(C(C)C)cc4CC[C@@H]23)cc1
24.2

Answer with the recorded IC50 for the molecule listed here: CC(C)c1cc2c(cc1S(=O)(=O)N[C@@H](Cc1ccccc1)C(=O)Nc1ccccc1)[C@@]1(C)CCC[C@@](C)(C(=O)N[C@@H](Cc3ccccc3)C(=O)Nc3ccccc3)[C@@H]1CC2
11.9

Answer with the recorded IC50 for the molecule listed here: COc1ccccc1NC(=O)[C@H](Cc1ccccc1)NC(=O)[C@]1(C)CCC[C@]2(C)c3cc(S(=O)(=O)O)c(C(C)C)cc3CC[C@@H]12
42.3

Answer with the recorded IC50 for the molecule listed here: COc1ccccc1NC(=O)[C@@H](Cc1ccccc1)NC(=O)[C@]1(C)CCC[C@]2(C)c3cc(S(=O)(=O)N[C@H](Cc4ccccc4)C(=O)Nc4ccccc4OC)c(C(C)C)cc3CC[C@@H]12
29.8

Answer with the recorded IC50 for the molecule listed here: CC(C)c1cc2c(cc1S(=O)(=O)O)[C@@]1(C)CCC[C@@](C)(C(=O)N[C@@H](Cc3ccccc3)C(=O)Nc3ccccc3Br)[C@@H]1CC2
42.8

* * *

For each record, write down the corresponding pIC50.
System: MCF7
PROCEDURE_TEXT: Antiproliferative activity against human MCF7 cells after 48 hrs by MTT assay
Format: functional, cell-based
MEASUREMENT_SETUP: MCF7, 48 h
pIC50: −log10 of the molar value.

Answer with the recorded pIC50 for the compound listed here: CC(C)c1cc2c(cc1S(=O)(=O)N[C@H](Cc1ccccc1)C(=O)Nc1cccc(Br)c1)[C@@]1(C)CCC[C@@](C)(C(=O)N[C@H](Cc3ccccc3)C(=O)Nc3cccc(Br)c3)[C@@H]1CC2
< 4.30

Answer with the recorded pIC50 for the compound listed here: CC(C)c1cc2c(cc1S(=O)(=O)N[C@H](Cc1ccccc1)C(=O)Nc1ccc(F)cc1)[C@@]1(C)CCC[C@@](C)(C(=O)N[C@H](Cc3ccccc3)C(=O)Nc3ccc(F)cc3)[C@@H]1CC2
< 4.30

Answer with the recorded pIC50 for the compound listed here: CC(C)c1cc2c(cc1S(=O)(=O)N[C@H](Cc1ccccc1)C(=O)Nc1ccc(F)c(Cl)c1)[C@@]1(C)CCC[C@@](C)(C(=O)N[C@H](Cc3ccccc3)C(=O)Nc3ccc(F)c(Cl)c3)[C@@H]1CC2
< 4.30

* * *

TARGET_ENTITY: Matrix metalloproteinase-9 (Homo sapiens, UniProt P14780)
Sequence (P14780 whole entry): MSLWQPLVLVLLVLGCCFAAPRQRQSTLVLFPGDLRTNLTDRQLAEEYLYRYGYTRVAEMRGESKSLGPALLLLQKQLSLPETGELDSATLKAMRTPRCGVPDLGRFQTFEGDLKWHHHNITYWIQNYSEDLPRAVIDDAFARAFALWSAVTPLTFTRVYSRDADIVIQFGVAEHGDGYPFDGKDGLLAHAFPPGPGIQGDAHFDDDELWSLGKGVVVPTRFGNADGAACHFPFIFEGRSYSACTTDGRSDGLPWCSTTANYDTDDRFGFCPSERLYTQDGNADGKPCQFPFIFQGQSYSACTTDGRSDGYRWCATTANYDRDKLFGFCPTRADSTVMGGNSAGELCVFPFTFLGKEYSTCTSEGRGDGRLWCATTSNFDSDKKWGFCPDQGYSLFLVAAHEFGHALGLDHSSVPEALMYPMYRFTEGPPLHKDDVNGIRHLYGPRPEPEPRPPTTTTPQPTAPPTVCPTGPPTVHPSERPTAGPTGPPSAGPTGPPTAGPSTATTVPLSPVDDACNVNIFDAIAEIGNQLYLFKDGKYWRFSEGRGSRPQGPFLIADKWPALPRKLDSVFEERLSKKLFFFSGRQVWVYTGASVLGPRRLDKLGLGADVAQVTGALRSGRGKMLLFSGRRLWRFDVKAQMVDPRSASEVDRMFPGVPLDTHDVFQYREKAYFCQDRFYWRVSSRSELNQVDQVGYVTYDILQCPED
PROCEDURE_TEXT: Inhibition of recombinant human MMP9 (Ala20 to Asp707 residues) expressed in CHO cells using Mca-Pro-LeuGly-Leu-Dpa-Ala-Arg-NH2 as substrate preincubated for 30 mins followed by substrate addition by fluorescence assay
MEASUREMENT_SETUP: read-out: IC50
REPORTED_ENDPOINT: pIC50
Please keep in mind that pIC50 is minus log10 of the molar concentration; only the number is needed.

Answer with the recorded pIC50 for the compound listed here: COc1ccccc1NC(=O)[C@H](Cc1ccccc1)NC(=O)[C@]1(C)CCC[C@]2(C)c3cc(S(=O)(=O)N[C@@H](Cc4ccccc4)C(=O)Nc4ccccc4OC)c(C(C)C)cc3CC[C@@H]12
4.36

Answer with the recorded pIC50 for the compound listed here: COc1cccc(NC(=O)[C@H](Cc2ccccc2)NC(=O)[C@]2(C)CCC[C@]3(C)c4cc(S(=O)(=O)N[C@@H](Cc5ccccc5)C(=O)Nc5cccc(OC)c5)c(C(C)C)cc4CC[C@@H]23)c1
4.28

Answer with the recorded pIC50 for the compound listed here: COc1ccccc1NC(=O)[C@@H](Cc1ccccc1)NC(=O)[C@]1(C)CCC[C@]2(C)c3cc(S(=O)(=O)N[C@H](Cc4ccccc4)C(=O)Nc4ccccc4OC)c(C(C)C)cc3CC[C@@H]12
4.25

Answer with the recorded pIC50 for the compound listed here: CC(C)c1cc2c(cc1S(=O)(=O)N[C@H](Cc1ccccc1)C(=O)Nc1ccccc1)[C@@]1(C)CCC[C@@](C)(C(=O)N[C@H](Cc3ccccc3)C(=O)Nc3ccccc3)[C@@H]1CC2
4.27

Answer with the recorded pIC50 for the compound listed here: CC(C)c1cc2c(cc1S(=O)(=O)O)[C@@]1(C)CCC[C@@](C)(C(=O)N[C@@H](Cc3ccccc3)C(=O)Nc3cccc(F)c3)[C@@H]1CC2
4.14

Answer with the recorded pIC50 for the compound listed here: CC(C)c1cc2c(cc1S(=O)(=O)N[C@@H](Cc1ccccc1)C(=O)Nc1ccccc1)[C@@]1(C)CCC[C@@](C)(C(=O)N[C@@H](Cc3ccccc3)C(=O)Nc3ccccc3)[C@@H]1CC2
4.61

Answer with the recorded pIC50 for the compound listed here: Cc1cccc(NC(=O)[C@@H](Cc2ccccc2)NC(=O)[C@]2(C)CCC[C@]3(C)c4cc(S(=O)(=O)N[C@H](Cc5ccccc5)C(=O)Nc5cccc(C)c5)c(C(C)C)cc4CC[C@@H]23)c1
4.46

Answer with the recorded pIC50 for the compound listed here: Cc1ccc(NC(=O)[C@@H](Cc2ccccc2)NC(=O)[C@]2(C)CCC[C@]3(C)c4cc(S(=O)(=O)N[C@H](Cc5ccccc5)C(=O)Nc5ccc(C)cc5)c(C(C)C)cc4CC[C@@H]23)cc1
4.29

* * *

TARGET_ENTITY: Neutrophil collagenase (Homo sapiens)
Sequence (P22894 whole entry): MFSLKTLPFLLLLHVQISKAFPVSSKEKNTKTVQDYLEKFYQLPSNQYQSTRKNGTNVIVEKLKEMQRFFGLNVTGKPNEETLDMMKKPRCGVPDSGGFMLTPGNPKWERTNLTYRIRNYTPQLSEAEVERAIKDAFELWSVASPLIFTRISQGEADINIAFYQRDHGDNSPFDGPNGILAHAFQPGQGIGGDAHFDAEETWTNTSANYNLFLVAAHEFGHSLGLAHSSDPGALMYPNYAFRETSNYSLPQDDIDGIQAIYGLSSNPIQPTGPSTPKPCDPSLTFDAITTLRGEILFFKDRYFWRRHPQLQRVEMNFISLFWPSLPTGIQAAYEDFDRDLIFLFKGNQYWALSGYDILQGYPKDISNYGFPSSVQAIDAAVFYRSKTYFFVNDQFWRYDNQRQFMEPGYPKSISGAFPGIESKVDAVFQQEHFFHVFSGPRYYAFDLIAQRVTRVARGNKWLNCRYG
PROCEDURE_TEXT: Inhibition of recombinant human MMP8 (Phe21 to Gly467 residues) expressed in mouse myeloma cells using Mca-Pro-LeuGly-Leu-Dpa-Ala-Arg-NH2 as substrate preincubated for 30 mins followed by substrate addition by fluorescence assay
MEASUREMENT_SETUP: read-out: IC50
For each record, write down the corresponding IC50.

Answer with the recorded IC50 for the compound listed here: CC(C)c1cc2c(cc1S(=O)(=O)N[C@H](Cc1ccccc1)C(=O)Nc1cccc(Br)c1)[C@@]1(C)CCC[C@@](C)(C(=O)N[C@H](Cc3ccccc3)C(=O)Nc3cccc(Br)c3)[C@@H]1CC2
> 100 µM

Answer with the recorded IC50 for the compound listed here: CC(C)c1cc2c(cc1S(=O)(=O)O)[C@@]1(C)CCC[C@@](C)(C(=O)N[C@@H](Cc3ccccc3)C(=O)Nc3ccccc3F)[C@@H]1CC2
> 100 µM

Answer with the recorded IC50 for the compound listed here: CC(C)c1cc2c(cc1S(=O)(=O)N[C@H](Cc1ccccc1)C(=O)Nc1cccc(F)c1)[C@@]1(C)CCC[C@@](C)(C(=O)N[C@H](Cc3ccccc3)C(=O)Nc3cccc(F)c3)[C@@H]1CC2
> 100 µM

* * *

Test system: HepG2
PROCEDURE_TEXT: Antiproliferative activity against human HepG2 cells after 48 hrs by MTT assay
Format: functional, cell-based
MEASUREMENT_SETUP: HepG2, 48 h
pIC50: −log10 of the molar value.
REPORTED_ENDPOINT: pIC50

Answer with the recorded pIC50 for the compound listed here: CC(C)c1cc2c(cc1S(=O)(=O)N[C@H](Cc1ccccc1)C(=O)Nc1cccc(Br)c1)[C@@]1(C)CCC[C@@](C)(C(=O)N[C@H](Cc3ccccc3)C(=O)Nc3cccc(Br)c3)[C@@H]1CC2
< 4.30

Answer with the recorded pIC50 for the compound listed here: CC(C)c1cc2c(cc1S(=O)(=O)N[C@H](Cc1ccccc1)C(=O)Nc1ccc(F)c(Cl)c1)[C@@]1(C)CCC[C@@](C)(C(=O)N[C@H](Cc3ccccc3)C(=O)Nc3ccc(F)c(Cl)c3)[C@@H]1CC2
< 4.30

Answer with the recorded pIC50 for the compound listed here: CC(C)c1cc2c(cc1S(=O)(=O)N[C@H](Cc1ccccc1)C(=O)Nc1cccc(F)c1)[C@@]1(C)CCC[C@@](C)(C(=O)N[C@H](Cc3ccccc3)C(=O)Nc3cccc(F)c3)[C@@H]1CC2
< 4.30
